Measured values drawn from patent US9695155B2 for this set.

Please respond with reported Crabgrass, Large plant response rating for every item in the list.
System: large (Lg) crabgrass
Test: Test C preemergence
Assay type: in vivo, Digitaria sanguinalis
Settings: 62 g ai/ha, preemergence; scale 0 (no effect) to 100 (complete control)
Answers are plain numbers.

N#Cc1cccc(Oc2ncc(F)cn2)c1-n1cc(Cl)cn1 | 100
N#Cc1cnn(-c2c(CF)cccc2Oc2ncc(F)cn2)c1 | 98
N#Cc1cnn(-c2c(C#N)cccc2Oc2ncc(F)cn2)c1 | 100

Proceed to the following item.
response.value for `CCOc1cn(-c2c(Br)cccc2Oc2ncc(Cl)cn2)nn1` (field: Crabgrass, Large plant response rating) = 100

* * *

System: morningglory
Assay: Test C postemergence
Type: in vivo, Ipomoea coccinea
Conditions: 16 g ai/ha, postemergence; 0 is no effect, 100 is complete control
QUANTITY KIND: Plant response rating (0 to 100), Morningglory
One number for each entry.

Solved cases (3 shown):
CC(=NO)c1cn(-c2c(Br)cccc2Oc2ncc(Cl)cn2)nn1 [Compound 115] | 40
Cc1cnc(Oc2cccc(C#N)c2-n2cc(I)cn2)nc1 [Compound 136] | 5
CCCOc1cnn(-c2c(C#N)cccc2Oc2ncc(Cl)cn2)c1 [Compound 150] | 40

response.value for N#Cc1cnn(-c2c(Oc3ncc(Cl)cn3)cccc2C(F)F)c1 [Compound 236] (field: Plant response rating (0 to 100), Morningglory) = 10
